# conditionSummary: buffer; pH 7.4; 200.0 µM
# solubility kinetic >= 40 µg/mL gives Satisfied, anything below gives Not satisfied

Worked examples follow.
- compound: "CC(=O)Nc1ccc(Nc2cc(C)c3ccccc3n2)cc1"
  labelClass: "Satisfied"
- compound: "O=C(COC(=O)c1ccc(Br)o1)NCC1CCCCC1"
  labelClass: "Satisfied"
- compound: "COc1ccc(C(=O)N(c2ccc(C)cc2)C2C=CS(=O)(=O)C2)cc1OC (configuration not stated)"
  labelClass: "Satisfied"
- compound: "COc1ccccc1CC(=O)NC1CCN(Cc2ccccc2)CC1"
  labelClass: "Satisfied"
- compound: "CCC1CN(C(=O)NCc2cccc(OC)c2)c2ccccc2O1 (configuration not stated)"
  labelClass: "Satisfied"

Lookup: I'd appreciate it if you could say whether COc1cc(NC(=O)c2ccc(S(=O)(=O)N(C)c3ccccc3OC)cc2)cc(OC)c1 has solubility kinetic at least equal to 40 µg/mL.
Found: Not satisfied

Lookup: I'd appreciate it if you could say whether O=C1c2ccccc2C(=O)N1CC(O)COc1ccccc1Cl (configuration not stated) has solubility kinetic at least equal to 40 µg/mL.
Found: Satisfied

Lookup: I'd appreciate it if you could say whether CCC(C)N1CCN(S(=O)(=O)Cc2ccccc2)CC1 (configuration not stated) has solubility kinetic at least equal to 40 µg/mL.
Found: Satisfied

Lookup: I'd appreciate it if you could say whether CCCCCC(=O)NC(=S)Nc1cccc(-c2nc3ncccc3o2)c1 has solubility kinetic at least equal to 40 µg/mL.
Found: Not satisfied

====

Entries and their solubility kinetic values follow.
# conditionSummary: buffer; pH 7.4; 200.0 µM

Some compounds with known solubility kinetic results, for comparison:
- compound: "Nc1nonc1C(=O)NCCNC(=O)c1ccc(Cl)cc1"
  measuredQuantity: "solubility kinetic"
  dataValue: "> 46.5 µg/mL"
- compound: "Cc1ccc(S(=O)(=O)N2CCC3(CC2)OCCO3)cc1"
  measuredQuantity: "solubility kinetic"
  dataValue: "> 44.6 µg/mL"
- compound: "CCN(CC)S(=O)(=O)c1ccc(N2CC(C(=O)N3Cc4ccccc4CC3C(N)=O)CC2=O)cc1 (stereo not drawn)"
  measuredQuantity: "solubility kinetic"
  dataValue: "> 74.8 µg/mL"
- compound: "Nc1nccc(-c2ccc(-n3cccc3)cc2)n1"
  measuredQuantity: "solubility kinetic"
  dataValue: "< 0.1 µg/mL"
- compound: "O=C(NCCOC(=O)c1ccccc1)c1ccccc1"
  measuredQuantity: "solubility kinetic"
  dataValue: "> 40.4 µg/mL"
- compound: "Nc1ccccc1SC1CC(=O)N(c2ccc3c(c2)OCO3)C1=O (stereo not drawn)"
  measuredQuantity: "solubility kinetic"
  dataValue: "< 0.4 µg/mL"
- compound: "Cn1cc(S(=O)(=O)N2CCOCC2)cc1C(=O)O"
  measuredQuantity: "solubility kinetic"
  dataValue: "> 41.1 µg/mL"

Field: next compound
Lookup: Provide measured solubility kinetic value, entry: CC(Oc1ccc(Br)cc1Br)C(=O)Nc1cccnc1Cl (stereo not drawn)
Found: < 0.5 µg/mL

====

# conditionSummary: buffer; pH 7.4; 200.0 µM
Entries and their solubility kinetic values follow.

Lookup: Provide measured solubility kinetic value, entry: COc1cccc(OP(=O)(Nc2ccccc2)Oc2cccc(OC)c2)c1
Found: < 0.8 µg/mL

Lookup: Provide measured solubility kinetic value, entry: COc1ccc(C2/C(=C(/O)c3ccc(F)cc3)C(=O)C(=O)N2CCCN2CCOCC2)cc1OC (stereo not drawn)
Found: > 72.7 µg/mL

Lookup: Provide measured solubility kinetic value, entry: Cc1ccccc1NC(=O)CC(=O)Nc1ccccc1C
Found: > 42.4 µg/mL

====

# conditionSummary: buffer; pH 7.4; 200.0 µM
measuredQuantity: solubility kinetic

- compound: "CC(NC(=O)c1cc2cc(F)ccc2[nH]1)c1ccccc1 (stereo not drawn)"
  solubility kinetic: "4.2 µg/mL"
- compound: "COc1ccc(C(=O)n2cnc3ccccc32)cc1"
  solubility kinetic: "> 37.8 µg/mL"
- compound: "NC1=NC(=O)/C(=C/C=C/c2cccs2)S1"
  solubility kinetic: "5.9 µg/mL"
- compound: "CCCN1CNC(=S)N(c2ccccc2C)C1"
  solubility kinetic: "> 37.4 µg/mL"
- compound: "COc1cc(/C=C2\\N=C(c3ccccc3)OC2=O)ccc1OC(C)=O"
  solubility kinetic: "> 50.6 µg/mL"

Lookup: Provide measured solubility kinetic value, entry: CN(CC(=O)NC1CCCCCCC1)S(=O)(=O)c1cnc[nH]1
Found: > 49.3 µg/mL

Lookup: Provide measured solubility kinetic value, entry: c1ccc(Nc2ncnc3sccc23)cc1
Found: > 34.1 µg/mL

Lookup: Provide measured solubility kinetic value, entry: O=c1cc(C(F)(F)F)nc(-c2ccccc2OC(F)(F)F)[nH]1
Found: > 48.6 µg/mL

====

# conditionSummary: buffer; pH 7.4; 200.0 µM
measuredQuantity: solubility kinetic

Some compounds with known solubility kinetic results, for comparison:
- compound: "Cc1ccc(C(=O)OCC(=O)c2ccc[nH]2)s1"
  dataValue: "> 37.4 µg/mL"
- compound: "CCCCOc1ccc(-c2ncc([N+](=O)[O-])cn2)cc1"
  dataValue: "< 0.2 µg/mL"
- compound: "CCOC(=O)c1c(-c2ccc(C)cc2)csc1/N=C/N(C)C"
  dataValue: "> 47.5 µg/mL"

Lookup: Provide measured solubility kinetic value, entry: O=C(NCc1ccco1)c1ccccc1
Found: > 30.2 µg/mL

Lookup: Provide measured solubility kinetic value, entry: CC(=O)C1=C(O)C(=O)N(c2ccc(O)cc2)C1c1cccc([N+](=O)[O-])c1 (configuration not stated)
Found: > 53.1 µg/mL

Lookup: Provide measured solubility kinetic value, entry: Clc1ccc(CNc2cnccn2)cc1Cl
Found: > 38.1 µg/mL

Lookup: Provide measured solubility kinetic value, entry: Cc1cccc(C)c1NC(=O)c1ccc(N2CCCC2=O)cc1
Found: > 46.3 µg/mL

====

# conditionSummary: buffer; pH 7.4; 200.0 µM
Entries and their solubility kinetic values follow.

- molecule: "COCCSc1ccccc1C(=O)NCc1cccnc1"
  dataValue: "> 0.0454 mg/mL"

Lookup: Provide measured solubility kinetic value, entry: CCOC(=O)C1CCN(C(=S)NC2CC3C=CC2C3)CC1 (stereo not drawn)
Found: > 0.0463 mg/mL

Lookup: Provide measured solubility kinetic value, entry: Cc1ccc(C(=O)Nc2ccc3ccccc3c2)cc1
Found: < 0.0006 mg/mL

Lookup: Provide measured solubility kinetic value, entry: Cc1c(Cl)cccc1-n1cnc(=O)c2ccccc21
Found: > 0.0406 mg/mL

====

# conditionSummary: buffer; pH 7.4; 200.0 µM
# solubility kinetic >= 30 µg/mL gives Y, anything below gives N

Lookup: I'd appreciate it if you could say whether COc1ccccc1CCC(=O)OCC(=O)NC1CCCC1 has solubility kinetic at least equal to 30 µg/mL.
Found: Y

Lookup: I'd appreciate it if you could say whether Cc1cccc(C(=O)NCC(=O)N2CC(=O)Nc3ccccc32)c1 has solubility kinetic at least equal to 30 µg/mL.
Found: Y

Lookup: I'd appreciate it if you could say whether CCC(=O)Nc1ccc2nc3c(=O)[nH]c(=S)[nH]c3nc2c1 has solubility kinetic at least equal to 30 µg/mL.
Found: Y

Lookup: I'd appreciate it if you could say whether CN1CC(=O)N/C1=N\C(=O)Nc1ccc(O)cc1 has solubility kinetic at least equal to 30 µg/mL.
Found: Y

Lookup: I'd appreciate it if you could say whether CCC(=NCc1cccnc1)c1c(O)n(-c2ccccc2C)c(=O)[nH]c1=O has solubility kinetic at least equal to 30 µg/mL.
Found: Y

Lookup: I'd appreciate it if you could say whether CSc1ccccc1NC(=O)CN(C)C(=O)COc1cccc2cccnc12 has solubility kinetic at least equal to 30 µg/mL.
Found: Y

Lookup: I'd appreciate it if you could say whether CCN1CCC(N2CCN(c3ccccc3OC)CC2)CC1 has solubility kinetic at least equal to 30 µg/mL.
Found: Y

Lookup: I'd appreciate it if you could say whether O=C(/C=C/c1cccc(F)c1)OCC(=O)N1CCCC1 has solubility kinetic at least equal to 30 µg/mL.
Found: Y

Lookup: I'd appreciate it if you could say whether CCCn1cccc(C(=O)Nc2ccc(OC)cc2)c1=O has solubility kinetic at least equal to 30 µg/mL.
Found: Y

Lookup: I'd appreciate it if you could say whether CN(c1ccccc1)c1nc(N)c([N+](=O)[O-])c(Nc2ccccc2)n1 has solubility kinetic at least equal to 30 µg/mL.
Found: N

====

# conditionSummary: buffer; pH 7.4; 200.0 µM
# thresholds on solubility kinetic define classes: bottom bin = under 6 µg/mL, middle bin = from 6 µg/mL up to 20 µg/mL, top bin = 20 µg/mL and over

Worked examples follow.
- molecule: "CCN(c1ccccc1)S(=O)(=O)c1ccc(Oc2ccccc2C(C)=O)nc1"
  labelClass: "middle bin"
- molecule: "O=C(COC(=O)CC1CC2CCC1C2)NCc1ccc(Cl)cc1 (stereo not drawn)"
  labelClass: "middle bin"
- molecule: "O=C(COc1ccc(Cl)cc1Br)NC(=O)NC1CCCC1"
  labelClass: "middle bin"
- molecule: "Cc1cccc(Nc2c([N+](=O)[O-])ccc3nonc23)c1"
  labelClass: "bottom bin"
- molecule: "CN1C(=O)N(c2nnc(C(C)(C)C)s2)C(=O)C1c1ccccc1 (stereo not drawn)"
  labelClass: "top bin"

Lookup: Assign a category based on measured solubility kinetic for O=C(NCc1ccccc1)N1CCCC1 and give only the class name.
Found: top bin

Lookup: Assign a category based on measured solubility kinetic for CCc1ccc(NC(=O)/C(C#N)=C/c2ccncc2)cc1 and give only the class name.
Found: middle bin

Lookup: Assign a category based on measured solubility kinetic for CC(C)(C)c1cc(NC(=O)Nc2ccccc2)no1 and give only the class name.
Found: bottom bin
